Molecular target: T1, histidine-tagged human Siglec-7 (NovoProtein) (human, UniProt Q9Y286 19-353)
T1 construct: Bought protein; also called recombinant human Siglec-7; recombinant Siglec-7; not shown: histidine tag
T1 sequence (Q9Y286 19-353 limits assumed): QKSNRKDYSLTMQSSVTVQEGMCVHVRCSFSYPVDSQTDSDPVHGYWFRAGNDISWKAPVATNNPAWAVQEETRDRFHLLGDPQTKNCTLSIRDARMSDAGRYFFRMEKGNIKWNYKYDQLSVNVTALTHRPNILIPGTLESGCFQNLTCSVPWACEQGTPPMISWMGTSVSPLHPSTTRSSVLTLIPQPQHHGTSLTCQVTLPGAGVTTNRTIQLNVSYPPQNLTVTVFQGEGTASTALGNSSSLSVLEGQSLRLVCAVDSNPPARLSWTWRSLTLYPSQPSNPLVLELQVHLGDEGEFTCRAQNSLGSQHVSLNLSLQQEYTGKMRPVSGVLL
Assay: BLI (ForteBio), antibody captured
result-type: koff (s⁻¹)
State just the number; it will be interpreted in s⁻¹.

Respond only with koff recorded for S7AB-H12 (antibody, V domains shown) VH: QVQLVQSGAEVKKPGASVKISCKASGYAFTNCWMNWVRQAPGQGLEWIGRIFPGNGHTNYAQKFQGRATLTEDTSTSTAYMELSSLRSEDTAVYYCARDYSDYYFDYWGQGTLLTVSS VL: DVQMTQSPSSLSASVGDRVTITCRASQDINTYLNWYQQKPGKAPKLLIYYTSRLHSGVPSRFSGSGSGTDYTLTISSLQPEDFATYYCQQGNTLPWTFGQGTKLEIK
0.000152
